# Measured Target: Zea mays EPSPS variant Zm-H6 (868-H6) with A76V (H6-A76V) (Zea mays, UniProt O24566, A1R/A3W/A415G/A71Q/A75V/D401G/E301S/E390G/G101A/I207L/K83R/L97C/T278A/T360S/T440Q/V437R)
# Test Details: Substrate saturation kinetic analysis with glyphosate, H6-A76V
Endpoint Label: Ki (µM)
Record the value in µM, omitting the unit from your answer.

Consider O=C(O)CNCP(=O)(O)O [glyphosate, N-phosphonomethylglycine] . Its measured Ki is 538

* * *

# Measured Target: Zea mays EPSPS variant G102A (Zea mays, UniProt O24566, G101A)
# Sequence (O24566 with tags, fused parts or gaps G101A): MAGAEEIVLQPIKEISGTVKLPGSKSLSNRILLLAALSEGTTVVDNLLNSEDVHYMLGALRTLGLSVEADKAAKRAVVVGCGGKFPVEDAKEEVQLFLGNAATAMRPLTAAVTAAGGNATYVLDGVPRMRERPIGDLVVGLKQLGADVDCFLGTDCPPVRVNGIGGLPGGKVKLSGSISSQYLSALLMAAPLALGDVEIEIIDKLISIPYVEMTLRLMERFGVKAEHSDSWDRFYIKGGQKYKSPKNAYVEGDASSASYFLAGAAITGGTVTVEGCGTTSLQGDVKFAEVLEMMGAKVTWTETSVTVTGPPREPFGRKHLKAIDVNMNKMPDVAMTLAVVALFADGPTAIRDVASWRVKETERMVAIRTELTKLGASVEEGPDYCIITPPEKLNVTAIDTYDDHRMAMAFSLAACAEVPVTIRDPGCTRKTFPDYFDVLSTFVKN
# Test Details: EPSPS substrate saturation kinetics, G102A
# Cond: Ki, substrate saturation; Zm-G102A
Endpoint Label: pKi
The read-out pKi is expressed as -log10 of concentration in moles per litre.

The measured pKi associated with O=C(O)CNCP(=O)(O)O [glyphosate, N-phosphonomethylglycine] reads 2.87

Value source: patent US11549123B2
